Data provenance is paper PMC2375285.

Molecular target: CYP2C11 (Rattus norvegicus)
Construct: hydroxylation of testosterone (CYP2C11, CYP2A1, CYP3A, CYP2B1/2) in rat liver microsomes; from tissue; host or cells: rat liver, microsomes
Sequence (P08683 whole entry): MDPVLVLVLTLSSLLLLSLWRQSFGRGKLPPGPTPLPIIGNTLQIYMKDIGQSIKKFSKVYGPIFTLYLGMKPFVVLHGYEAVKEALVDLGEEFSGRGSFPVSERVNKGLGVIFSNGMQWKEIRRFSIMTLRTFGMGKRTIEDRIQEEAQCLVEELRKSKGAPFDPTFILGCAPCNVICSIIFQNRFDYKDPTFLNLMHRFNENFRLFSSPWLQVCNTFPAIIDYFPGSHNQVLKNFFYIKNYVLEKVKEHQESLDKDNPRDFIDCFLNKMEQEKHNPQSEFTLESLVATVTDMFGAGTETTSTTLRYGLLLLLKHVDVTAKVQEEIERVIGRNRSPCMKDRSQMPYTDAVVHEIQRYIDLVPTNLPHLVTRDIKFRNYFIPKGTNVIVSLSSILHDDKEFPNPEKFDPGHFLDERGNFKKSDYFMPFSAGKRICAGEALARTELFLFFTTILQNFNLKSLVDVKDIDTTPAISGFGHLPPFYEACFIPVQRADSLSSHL
Test: Testosterone 2α-hydroxylase in rat liver microsomes
Type: biochemical
Details: Rat liver microsomes
METRIC: pIC50
Here pIC50 is given on a logarithmic scale as minus log10 of the concentration in mol/L.

Query: What does the record list as pIC50 for Clc1cccc(C(c2ccc3[nH]cnc3c2)n2ccnc2)c1.Clc1cccc(C(c2ccc3[nH]cnc3c2)n2ccnc2)c1.O=C(O)/C=C/C(=O)O.O=C(O)/C=C/C(=O)O.O=C(O)/C=C/C(=O)O (racemic) [liarozole-fumarate, reference compound] ?
Response: 5.54
